Below, each entry is listed alongside its reported IC50.
Test system: human TrkA (Homo sapiens, UniProt P04629)
Construct: purchased Lifetechnologies PV3144
Sequence (P04629 33-796): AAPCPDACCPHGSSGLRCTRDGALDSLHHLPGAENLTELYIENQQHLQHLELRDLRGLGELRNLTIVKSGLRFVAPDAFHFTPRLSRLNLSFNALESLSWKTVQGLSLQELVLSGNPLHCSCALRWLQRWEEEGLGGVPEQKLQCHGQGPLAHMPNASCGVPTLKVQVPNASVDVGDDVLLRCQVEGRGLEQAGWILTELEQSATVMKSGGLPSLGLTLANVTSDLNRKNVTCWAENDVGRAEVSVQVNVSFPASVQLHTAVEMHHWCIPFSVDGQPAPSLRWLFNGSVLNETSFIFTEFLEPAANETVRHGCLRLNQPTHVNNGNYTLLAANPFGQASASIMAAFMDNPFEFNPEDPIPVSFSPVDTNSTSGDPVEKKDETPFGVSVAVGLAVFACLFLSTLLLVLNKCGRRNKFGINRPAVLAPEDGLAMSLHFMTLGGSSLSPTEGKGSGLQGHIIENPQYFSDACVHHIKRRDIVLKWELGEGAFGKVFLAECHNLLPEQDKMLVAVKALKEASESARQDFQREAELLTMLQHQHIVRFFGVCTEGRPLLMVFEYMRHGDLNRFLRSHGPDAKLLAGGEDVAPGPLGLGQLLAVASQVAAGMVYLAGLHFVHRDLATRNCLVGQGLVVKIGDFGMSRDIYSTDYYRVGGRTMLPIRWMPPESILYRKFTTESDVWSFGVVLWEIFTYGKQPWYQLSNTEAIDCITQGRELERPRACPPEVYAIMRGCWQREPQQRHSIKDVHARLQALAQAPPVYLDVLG
Assay comment: Test Example 2: Human TrkA Inhibition Assay
Type: biochemical
Recorded conditions: human TrkA inhibition, Test Example 2; class symbols A/B/C; read-out: IC50_nM

Compound	Test system	IC50
COCCN1C[C@@H](NC(=O)Nc2c(C)c(-c3cnn(C)c3)nn2-c2ccccc2)[C@@]2(CCc3ccccc32)C1 (racemic)	human TrkA (Homo sapiens, UniProt P04629)	> 1000 nM
Cc1c(-c2cnn(C)c2)nn(-c2ccccc2)c1NC(=O)N[C@@H]1CC(C)(O)C[C@H]1c1ccccc1 (stereo partly shown)	human TrkA (Homo sapiens, UniProt P04629)	> 1000 nM
CCOC(=O)C=C1C[C@@H](NC(=O)Nc2c(C)c(-c3cnn(C)c3)nn2-c2ccccc2)[C@H](c2ccccc2)C1	human TrkA (Homo sapiens, UniProt P04629)	100 to 1000 nM
Cc1c(-c2cnn(C)c2)nn(-c2ccccc2)c1NC(=O)N[C@@H]1CN(C2CCC2)C[C@H]1c1ccc(F)c(F)c1	human TrkA (Homo sapiens, UniProt P04629)	100 to 1000 nM
COCCN1C[C@@H](NC(=O)Nc2c(C)c(-c3cnn(C)c3)nn2-c2ccccc2)[C@H](c2cccc(-c3ccc(C(=O)OC)cc3)c2)C1 (racemic)	human TrkA (Homo sapiens, UniProt P04629)	> 1000 nM

Would you kindly look at the next entry?
Consider the compound COCC(CNO)N1C[C@@H](NC(=O)Nc2c(C)c(-c3cnn(C)c3)nn2-c2ccccc2)[C@H](c2ccc(F)c(F)c2)C1 (stereo partly shown) and give its measured IC50.
< 100 nM

----------
Below, each entry is listed alongside its reported IC50.
Test system: human TrkA (Homo sapiens, UniProt P04629)
Construct: purchased Lifetechnologies PV3144
Assay comment: Test Example 2: Human TrkA Inhibition Assay
Type: biochemical
Recorded conditions: human TrkA inhibition, Test Example 2; class symbols A/B/C; read-out: IC50_nM

Molecule	Quantity name	Recorded measurement
COCC(CNC(=N)N)N1C[C@@H](NC(=O)Nc2c(C)c(-c3cnn(C)c3)nn2-c2ccccc2)[C@H](c2ccc(F)c(F)c2)C1 (stereo partly drawn)	IC50	> 1000 nM
C=C1C[C@@H](NC(=O)Nc2c(C)c(-c3cnn(C)c3)nn2-c2ccccc2)[C@H](c2ccc(F)c(F)c2)C1 (racemic)	IC50	100 to 1000 nM
COCC(CNOC)N1C[C@@H](NC(=O)Nc2c(C)c(-c3cnn(C)c3)nn2-c2ccccc2)[C@H](c2ccc(F)c(F)c2)C1 (stereo partly drawn)	IC50	100 to 1000 nM

Consider the molecule COCCN1C[C@@H](NC(=O)Nc2c(C)c(-c3cnn(C)c3)nn2-c2ccccc2)[C@H](c2cccc(N(C)C)c2)C1 (racemic) and give its measured IC50.
> 1000 nM

Consider the molecule Cc1c(-c2cnn(C)c2)nn(-c2ccccc2)c1NC(=O)N[C@@H]1CCC[C@H]1c1ccccc1 (racemic) and give its measured IC50.
> 1000 nM

Consider the molecule Cc1c(-c2cnn(C)c2)nn(-c2ccccc2)c1NC(=O)N[C@@H]1CN(Cc2nccn2C)C[C@H]1c1ccc(F)c(F)c1 and give its measured IC50.
> 1000 nM

Consider the molecule Cc1c(-c2cnn(C)c2)nn(-c2ccccc2)c1NC(=O)N[C@@H]1CN(CCNC(=O)C(F)(F)F)C[C@H]1c1ccc(F)c(F)c1 and give its measured IC50.
> 1000 nM

Consider the molecule Cc1c(-c2cnn(C)c2)nn(-c2ccccc2)c1NC(=O)N[C@@H]1CN(Cc2nccn2C2CC2)C[C@H]1c1ccc(F)c(F)c1 and give its measured IC50.
> 1000 nM

Consider the molecule Cc1c(-c2cnn(C)c2)nn(-c2ccccc2)c1NC(=O)N[C@@H]1CN(S(C)(=O)=O)C[C@H]1c1ccc(F)c(F)c1 and give its measured IC50.
> 1000 nM

Consider the molecule Cc1c(-c2cnn(C)c2)nn(-c2ccccc2)c1NC(=O)NC1CNCCC1c1ccc(F)c(F)c1 (stereo not drawn) and give its measured IC50.
> 1000 nM

Consider the molecule COCCN1[C@@H]2CCC[C@H]1[C@@H](c1ccc(F)c(F)c1)[C@@H]2NC(=O)Nc1c(C)c(-c2cnn(C)c2)nn1-c1ccccc1 (racemic) and give its measured IC50.
> 1000 nM

----------
Test system: human TrkA (Homo sapiens, UniProt P04629)
Construct: purchased Lifetechnologies PV3144
Assay comment: Test Example 2: Human TrkA Inhibition Assay
Assay type: biochemical
Recorded conditions: human TrkA inhibition, Test Example 2; class symbols A/B/C; read-out: IC50_nM
pIC50: −log10 of the molar value.
Below, each entry is listed alongside its reported pIC50.

Look over these answered cases.
Compound	Recorded measurement
COCC(CN(C)C)N1C[C@@H](NC(=O)Nc2c(C)c(-c3cnn(C)c3)nn2-c2ccccc2)[C@H](c2ccc(F)c(F)c2)C1 (stereo partly shown)	6.00 to 7.00
C=C1C[C@@H](NC(=O)Nc2c(C)c(-c3cnn(C)c3)nn2-c2ccccc2)[C@H](c2ccccc2)C1 (racemic)	> 7.00
Cc1c(-c2cnn(C)c2)nn(-c2ccccc2)c1NC(=O)N[C@@H]1CN(CCOc2ccccc2)C[C@H]1c1ccc(F)c(F)c1	6.00 to 7.00
COCC(=O)N1C[C@@H](NC(=O)Nc2c(C)c(-c3cnn(C)c3)nn2-c2ccccc2)[C@H](c2ccc(F)c(F)c2)C1	< 6.00
COCCN1C[C@@H](NC(=O)Nc2c(C)c(-c3cnn(C)c3)nn2-c2ccccc2)[C@H](c2cccc(C(=O)O)c2)C1 (racemic)	< 6.00
COCCN1C[C@@H](N(C)C(=O)Nc2c(C)c(-c3cnn(C)c3)nn2-c2ccccc2)[C@H](c2ccccc2)C1 (racemic)	< 6.00
COCC(C[n+]1ccccc1)N1C[C@@H](NC(=O)Nc2c(C)c(-c3cnn(C)c3)nn2-c2ccccc2)[C@H](c2ccc(F)c(F)c2)C1 (stereo partly shown)	> 7.00
Cc1c(-c2cnn(C)c2)nn(-c2ccccc2)c1NC(=O)N[C@@H]1CN(CCCS(C)(=O)=O)C[C@H]1c1ccc(F)c(F)c1	< 6.00

Consider the compound COCCN1C[C@@H](NC(=O)Nc2c(C)c(-c3cnn(C)c3)nn2-c2ccccc2)[C@H](c2cccc(-c3cncnc3)c2)C1 (racemic) and give its measured pIC50.
< 6.00

Consider the compound Cc1c(-c2cnn(C)c2)nn(-c2ccccc2)c1NC(=O)N[C@@H]1CN(CC2CCCO2)C[C@H]1c1ccc(F)c(F)c1 (stereo partly shown) and give its measured pIC50.
6.00 to 7.00

----------
Test system: human TrkA (Homo sapiens)
Construct: purchased Lifetechnologies PV3144
Assay comment: Test Example 2: Human TrkA Inhibition Assay
Assay type: biochemical
Recorded conditions: human TrkA inhibition, Test Example 2; class symbols A/B/C; read-out: IC50_nM
Protocol: After the incubation for 90 min at room temperature, ten μL of termination buffer (100 mmol/L HEPES, 40 mmol/L ethylenediaminetetraacetic acid (EDTA), 10 mmol/L magnesium chloride, 0.003 vol % Brij-35, 0.004 vol % Tween20, 1 mmol/L DTT and 0.16 vol % Coating Reagent 3) was added in each well to stop the enzyme reaction. […] The inhibitory effect of each compound on TrkA phosphorylation was calculated by the following formula-2. […]
Quantity name: IC50

Consider the compound COCC(CNC(C)=O)N1C[C@@H](NC(=O)Nc2c(C)c(-c3cnn(C)c3)nn2-c2ccccc2)[C@H](c2ccc(F)c(F)c2)C1 (stereo partly shown) and give its measured IC50.
0.1 to 1 µM

Consider the compound COCC(Cn1ccnc1)N1C[C@@H](NC(=O)Nc2c(C)c(-c3cnn(C)c3)nn2-c2ccccc2)[C@H](c2ccc(F)c(F)c2)C1 (stereo partly shown) and give its measured IC50.
0.1 to 1 µM

Consider the compound COCCN1C[C@@H](NC(=O)Nc2c(C)c(-c3cnn(C)c3)nn2-c2ccccc2)[C@H](c2ccc3ccccc3c2)C1 (racemic) and give its measured IC50.
< 0.1 µM

----------
Below, each entry is listed alongside its reported pIC50.
Test system: human TrkA (Homo sapiens, UniProt P04629)
Construct: purchased Lifetechnologies PV3144
Assay comment: Test Example 2: Human TrkA Inhibition Assay
Assay type: biochemical
Recorded conditions: human TrkA inhibition, Test Example 2; class symbols A/B/C; read-out: IC50_nM
pIC50: −log10 of the molar value.

Molecule	Recorded measurement
Cc1c(-c2cnn(C)c2)nn(-c2ccccc2)c1NC(=O)N[C@@H]1CN(C2CC(F)(F)C2)C[C@H]1c1ccc(F)c(F)c1 [Compound I-38]	< 6.00
COCCN1C[C@@H](NC(=O)Nc2c(C)c(OCC(C)(C)O)nn2-c2ccccc2)[C@H](C2CCCCC2)C1 (racemic) [Compound I-10]	< 6.00

Would you kindly look at the next entry?
Which measured pIC50 belongs to Cc1c(-c2cnn(C)c2)nn(-c2ccccc2)c1NC(=O)N[C@@H]1CN(C#N)C[C@H]1c1ccc(F)c(F)c1 [Compound I-173] , tested on human TrkA (Homo sapiens, UniProt P04629)?
< 6.00

meta.source: patent US10532985B2
